tested on: HCV 1b genotype; assay: HCV Replicon assay (HCV 1b genotype); assay type: cell-based; details: Hepatitis C virus; HCV 1b genotype replicon; read-out: EC50
Measured Property: pEC50
Reminder that pEC50 means the negative base-10 logarithm of the concentration expressed in mol/L.

Answered cases to consult:
# Molecule, Target Entity, pEC50
records = [
    ("COC(=O)NC(C(=O)N1[C@@H]2C[C@@H]2C[C@H]1c1ncc(C#Cc2ccc3cc(-c4cnc([C@@H]5C[C@H]6C[C@H]6N5C(=O)C(NC(=O)OC)C5CCOCC5)[nH]4)ccc3c2)[nH]1)C1CCOCC1 (stereo partly drawn)", "HCV 1b genotype", 9.91),
    ("COC(=O)N[C@H](C(=O)N1[C@@H]2C[C@@H]2C[C@H]1c1nc2ccc(-c3ccc4cc(-c5ccc6cc(-c7ccc8nc([C@@H]9C[C@H]%10C[C@H]%10N9C(=O)[C@@H](NC(=O)OC)C(C)C)[nH]c8c7)ccc6c5)ccc4c3)cc2[nH]1)C(C)C", "HCV 1b genotype", 6.77),
    ("COC(=O)N[C@H](C(=O)N[C@@H](C)c1ncc(-c2ccc(-c3ccc4cc(-c5cnc([C@H](C)NC(=O)[C@@H](NC(=O)OC)C6CCOCC6)[nH]5)ccc4c3)cc2)[nH]1)C1CCOCC1", "HCV 1b genotype", 9.87),
    ("COC(=O)N[C@H](C(=O)N1[C@@H]2C[C@@H]2C[C@H]1c1ncc(-c2ccc(-c3ccc4nc(-c5cnc([C@@H]6C[C@H]7C[C@H]7N6C(=O)[C@@H](NC(=O)OC)C(C)C)[nH]5)ccc4c3)cc2)[nH]1)C(C)C", "HCV 1b genotype", 11.97),
    ("CC(=O)N1[C@@H](C)CC[C@H]1c1ncc(-c2ccc(-c3ccc4cc(-c5cnc([C@@H]6CC[C@H](C)N6C(C)=O)[nH]5)ccc4c3)cc2)[nH]1", "HCV 1b genotype", 6.74),
    ("COC(=O)N[C@H](C(=O)N1CCC[C@H]1c1nc2ccc(-c3ccc4cc(-c5ccc6nc([C@@H]7CCCN7C(=O)[C@@H](NC(=O)OC)C7CC7)[nH]c6c5)ccc4c3)cc2[nH]1)C1CC1", "HCV 1b genotype", 10.74),
    ("COC(=O)N[C@H](C(=O)N1[C@@H]2C[C@@H]2C[C@H]1c1ncc(-c2cnc3cc(-c4ccc5nc([C@@H]6C[C@H]7C[C@H]7N6C(=O)[C@@H](NC(=O)OC)C6CCOCC6)[nH]c5c4)ccc3n2)[nH]1)C1CCOCC1", "HCV 1b genotype", 9.07),
    ("COc1cccc2c(C(=O)N3[C@@H]4C[C@@H]4C[C@H]3c3ncc(C#Cc4ccc5cc(-c6cnc([C@@H]7C[C@H]8C[C@H]8N7C(=O)c7nc(Cl)cc8c(OC)cccc78)[nH]6)ccc5c4)[nH]3)nc(Cl)cc12", "HCV 1b genotype", 7.40),
]

Now consider a different molecule.
// query Provide value of pEC50 for this record tested with HCV 1b genotype: `COC(=O)N[C@H](C(=O)N1[C@@H]2C[C@@H]2C[C@H]1c1ncc(-c2ccc3nc(-c4ccc5nc([C@@H]6C[C@H]7C[C@H]7N6C(=O)[C@@H](NC(=O)OC)C6CCOCC6)[nH]c5c4)cnc3c2)[nH]1)C1CCOCC1`
// result 8.74

====

Entries annotated with measured EC50
system: HCV 1b genotype; assay: HCV Replicon assay (HCV 1b genotype); type: cell-based; details: Hepatitis C virus; HCV 1b genotype replicon; read-out: EC50
Hi! Could you send only the number? It should be in nM, unit omitted.

Solved entries:
# Smi, Unit String, EC50
records = [
    ("COC(=O)N[C@H](C(=O)N1[C@@H]2C[C@@H]2C[C@H]1c1ncc(C#Cc2ccc3cc(-c4cnc([C@@H]5C[C@H]6C[C@H]6N5C(=O)[C@@H](NC(=O)OC)C5CCOCC5)[nH]4)ccc3c2)[nH]1)C1CCOCC1", "nM", 0.0422),
    ("COC(=O)N[C@H](C(=O)N1CCCC[C@H]1c1nc(-c2ccc(-c3ccc4cc(-c5c[nH]c([C@@H]6CCCCN6C(=O)[C@@H](NC(=O)OC)C(C)C)n5)ccc4c3)cc2)c[nH]1)C(C)C", "nM", 0.0374),
    ("COC(=O)N[C@H](C(=O)N1[C@@H]2C[C@@H]2C[C@H]1c1ncc(-c2ccc3nc(-c4ccc5nc([C@@H]6C[C@H]7C[C@H]7N6C(=O)[C@@H](NC(=O)OC)C(C)C)[nH]c5c4)cnc3c2)[nH]1)C(C)C", "nM", 0.0059),
]

Now for another entry.
// query Given the entry `COC(=O)N[C@H](C(=O)N1CCC[C@H]1c1nc2ccc(-c3ccc4cc(-c5ccc6nc([C@@H]7CCCN7C(=O)[C@@H](NC(=O)OC)C7CCOCC7)[nH]c6c5)ccc4c3)cc2[nH]1)C(C)C` , report its measured EC50.
// result 0.00477
